measured-target: human mGluR5d (Homo sapiens, UniProt P41594)
Sequence (P41594 21-942 isoform P41594-3 limits assumed): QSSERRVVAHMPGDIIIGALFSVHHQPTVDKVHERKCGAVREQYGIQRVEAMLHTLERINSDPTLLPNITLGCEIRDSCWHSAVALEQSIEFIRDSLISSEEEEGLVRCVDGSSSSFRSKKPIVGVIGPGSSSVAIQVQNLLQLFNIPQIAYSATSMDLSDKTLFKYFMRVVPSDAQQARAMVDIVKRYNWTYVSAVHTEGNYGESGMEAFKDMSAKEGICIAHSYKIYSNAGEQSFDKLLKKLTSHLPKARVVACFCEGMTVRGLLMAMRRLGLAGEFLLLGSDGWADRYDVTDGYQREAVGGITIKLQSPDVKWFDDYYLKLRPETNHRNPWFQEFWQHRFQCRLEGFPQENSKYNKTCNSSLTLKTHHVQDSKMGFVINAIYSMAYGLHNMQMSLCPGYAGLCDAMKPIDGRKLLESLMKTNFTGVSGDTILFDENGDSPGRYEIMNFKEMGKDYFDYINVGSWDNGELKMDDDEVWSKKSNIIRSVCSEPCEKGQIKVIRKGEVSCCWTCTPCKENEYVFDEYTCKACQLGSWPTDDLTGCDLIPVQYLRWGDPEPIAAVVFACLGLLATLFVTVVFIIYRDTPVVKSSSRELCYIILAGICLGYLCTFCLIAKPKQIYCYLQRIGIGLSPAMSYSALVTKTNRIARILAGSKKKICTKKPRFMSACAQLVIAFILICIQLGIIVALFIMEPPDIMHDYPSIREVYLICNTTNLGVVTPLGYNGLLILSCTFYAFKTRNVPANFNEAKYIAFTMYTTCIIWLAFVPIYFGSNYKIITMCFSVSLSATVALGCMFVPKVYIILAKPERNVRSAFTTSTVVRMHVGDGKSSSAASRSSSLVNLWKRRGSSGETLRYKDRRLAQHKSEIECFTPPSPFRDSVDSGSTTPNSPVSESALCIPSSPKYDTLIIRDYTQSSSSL
assay: intracellular calcium [Ca2+]i mobilization (FLIPR) functional assay in cells expressing mGluR5
test-settings: potentiators of mGluR5; 'assays described herein', assay not specified (FLIPR or IP3 turnover)
Measured EC50 accompanies every entry in the list below.
test-readout: EC50 (µM)

compound: CCCCc1ccc(N(CC(=O)N2CCN(c3nccnc3C#N)CC2)S(C)(=O)=O)cc1 [Compound 44]
experimental-result: 5.6
//
compound: CCCOc1ccc(CC(=O)N2CCN(c3ncccc3C#N)CC2)cc1 [Compound 16]
experimental-result: 2.8
//
compound: CCCCOc1ccc(CC(=O)N2CCN(c3ncccc3C#N)CC2)cc1 [Compound 1]
experimental-result: 5.1
//
compound: N#Cc1cccnc1N1CCN(C(=O)COc2ccccc2)CC1 [Compound 12]
experimental-result: 3.5
//
compound: N#Cc1cccnc1N1CCN(C(=O)Cc2ccc(OCc3ccccn3)cc2)CC1 [Compound 45]
experimental-result: 3.4
